target.entity: Adenosine receptor A2a (Rattus norvegicus) (UniProt P30543)
Sequence (P30543 whole entry): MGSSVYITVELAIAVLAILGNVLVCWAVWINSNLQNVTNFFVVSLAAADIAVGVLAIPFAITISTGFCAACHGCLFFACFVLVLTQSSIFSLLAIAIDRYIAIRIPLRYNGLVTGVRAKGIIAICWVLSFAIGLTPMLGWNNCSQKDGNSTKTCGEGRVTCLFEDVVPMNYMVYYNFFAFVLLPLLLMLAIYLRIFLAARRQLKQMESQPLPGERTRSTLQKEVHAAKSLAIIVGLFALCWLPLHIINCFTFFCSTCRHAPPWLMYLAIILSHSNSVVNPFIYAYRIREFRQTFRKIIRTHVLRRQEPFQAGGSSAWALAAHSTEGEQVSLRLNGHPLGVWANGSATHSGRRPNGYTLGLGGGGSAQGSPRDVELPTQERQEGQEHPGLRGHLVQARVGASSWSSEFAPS
measurement.protocol: Displacement of specific [3H]CGS-21680 binding in rat striatal membrane (Adenosine A2A receptor) at concentration of […].
Format: cell membranes
condition.info: Striatum
Classes by Displacement: lower band: < 5%; central band: ≥ 5% and < 30%; upper band: ≥ 30%

Some entries whose results are on file:
Which category does the recorded Displacement put CCc1nc(-c2ccccn2)cc2ccccc12 in?
central band

Again, but for CSc1nc(-c2ccccn2)cc2ccccc12
central band

Another compound to look at: Oc1nc(-c2ccccn2)cc2ccccc12
upper band

Try the compound N=C(Nc1nc(-c2ccccn2)cc2ccccc12)c1ccc(Cl)cc1
central band

Next:
For N=C(Nc1nc(-c2ccccn2)cc2ccccc12)c1cccc(Cl)c1 , which Displacement bin applies?
central band

Proceed to CC(=O)N(C(C)=O)c1nc(-c2ccccn2)cc2ccccc12
central band

Cool, now Nc1nc(-c2ccccn2)cc2ccccc12
central band

Item: COc1cccc(C(=N)Nc2nc(-c3ccccn3)cc3ccccc23)c1
lower band

What about this compound? Cc1cccc(C)c1C(=O)N(C(=O)c1c(C)cccc1C)c1nc(-c2ccccn2)cc2ccccc12
lower band

Next compound up: N=C(Nc1nc(-c2ccccn2)cc2ccccc12)c1ccc(Cl)c(Cl)c1
lower band

And then Clc1nc(-c2ccccn2)cc2ccccc12 , what is it?
central band

Do the same for Cc1cccc(C(=N)Nc2nc(-c3ccccn3)cc3ccccc23)c1 please
lower band

Follow-up entry: COc1nc(-c2ccccn2)cc2ccccc12
central band

Try the compound CS(=O)(=O)c1nc(-c2ccccn2)cc2ccccc12
upper band

Follow-up item: Cc1ccc(C(=N)Nc2nc(-c3ccccn3)cc3ccccc23)cc1
upper band

Entry to check: c1ccc(-c2nc(-c3ccccn3)cc3ccccc23)cc1
upper band

----------
Let's look at some molecules and their measured Displacement.
target.entity: Adenosine receptor A1 (Rattus norvegicus) (UniProt P25099)
measurement.protocol: Displacement of specific [3H]DPCPX binding at rat cortical membrane (Adenosine A1 receptor) at concentration of […].
Value expressed in %; do not type the unit.

Record request: Displacement value, item N=C(Nc1nc(-c2ccccn2)cc2ccccc12)c1ccccc1
34

Record: CC(=O)N(C(C)=O)c1nc(-c2ccccn2)cc2ccccc12
34

What about this molecule? N=C(Nc1nc(-c2ccccn2)cc2ccccc12)c1ccc(Cl)cc1
20

----------
target.entity: Adenosine receptor A3 (Homo sapiens, UniProt P0DMS8)
measurement.protocol: biochemical
Description: Displacement of [125I]AB-MECA from human adenosine A3 receptor expressed in CHO cells
measurement.type: Ki
Write the figure, then the unit, nothing else.

# lookup: Ki of Nc1nc2ccc(Cl)cc2c2nc(-c3ccco3)nn12
7.9 nM

----------
Parameter Displacement: see the listing below.
target.entity: Adenosine receptor A1 (Rattus norvegicus) (UniProt P25099)
Sequence (whole entry): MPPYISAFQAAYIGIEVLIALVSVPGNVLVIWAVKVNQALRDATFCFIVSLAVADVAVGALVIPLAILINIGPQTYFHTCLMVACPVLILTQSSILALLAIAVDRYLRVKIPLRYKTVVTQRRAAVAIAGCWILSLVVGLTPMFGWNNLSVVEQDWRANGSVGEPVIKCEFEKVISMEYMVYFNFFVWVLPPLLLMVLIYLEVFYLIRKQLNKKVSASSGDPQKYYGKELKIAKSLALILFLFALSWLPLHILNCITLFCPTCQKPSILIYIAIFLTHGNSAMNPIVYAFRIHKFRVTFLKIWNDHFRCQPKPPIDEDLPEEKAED
measurement.protocol: Displacement of specific [3H]DPCPX binding at rat cortical membrane (Adenosine A1 receptor) at concentration of […].
// return numeric value only (unit: %, not printed)

What reported Displacement corresponds to Nc1nc(-c2ccccn2)cc2ccccc12 on Adenosine receptor A1 (Rattus norvegicus) (UniProt P25099)?
19

Entry to check: Cc1cccc(C(=N)Nc2nc(-c3ccccn3)cc3ccccc23)c1
43

Here is the next molecule: N=C(Nc1nc(-c2ccccn2)cc2ccccc12)c1cccc(Cl)c1
49

Next molecule: COc1cccc(C(=N)Nc2nc(-c3ccccn3)cc3ccccc23)c1
43

Similarly, N=CNc1nc(-c2ccccn2)cc2ccccc12 ?
47

More entries:
# get_value(readout= Displacement, system= Adenosine receptor A1 (Rattus norvegicus) (UniProt P25099)) for CCc1nc(-c2ccccn2)cc2ccccc12
30

Please give the result for Cc1cccc(C)c1C(=O)N(C(=O)c1c(C)cccc1C)c1nc(-c2ccccn2)cc2ccccc12 too.
0

How about Clc1nc(-c2ccccn2)cc2ccccc12 ?
43

Another molecule: N=C(Nc1nc(-c2ccccn2)cc2ccccc12)c1ccc(Cl)c(Cl)c1
21

Would you kindly repeat that for COc1ccc(C(=N)Nc2nc(-c3ccccn3)cc3ccccc23)cc1 ?
18

Input Cc1ccc(C(=N)Nc2nc(-c3ccccn3)cc3ccccc23)cc1
12

----------
target.entity: Adenosine receptor A3 (Homo sapiens)
Sequence (P0DMS8 whole entry): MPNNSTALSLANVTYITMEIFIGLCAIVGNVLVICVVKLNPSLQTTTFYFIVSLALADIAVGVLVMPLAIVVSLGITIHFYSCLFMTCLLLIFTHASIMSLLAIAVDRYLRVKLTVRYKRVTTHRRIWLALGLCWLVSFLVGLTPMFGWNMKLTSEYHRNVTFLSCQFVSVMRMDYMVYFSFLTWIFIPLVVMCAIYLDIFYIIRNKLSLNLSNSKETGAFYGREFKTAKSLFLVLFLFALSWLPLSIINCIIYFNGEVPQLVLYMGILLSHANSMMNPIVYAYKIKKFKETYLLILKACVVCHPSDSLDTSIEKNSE
measurement.protocol: Displacement of specific [125I]AB-MECA binding at human adenosine A3 receptor expressed in HEK 293 cells.
Type: cell-based, HEK293
measurement.type: pKi
Scale note: pKi = -log10(concentration in M).

Endpoint output: pKi of COC(=O)C1=C2C=CN(C)C=C2c2nc(-c3ccccc3)nn2C1 . Value?
6.76

Moving on to the next compound.
Looking for the measured pKi of Nc1nc2ccc(Cl)cc2c2nc(-c3ccco3)nn12 , can you help?
6.84
